Value source: paper PMC10582335

# ASSAY_NOTES: Pharmacokinetics of almonertinib in rats, alone and after multiple doses of rivaroxaban or apixaban
# Assay type: in vivo, Sprague-Dawley (SD) rats
# CONDITION_DETAILS: male, Sprague-Dawley, rat, plasma, po, 15 mg/kg, rats, oral almonertinib 15 mg/kg after apixaban 0.5 mg/kg for five days (group 10), mean ± SD, n = 6; read-out: MRT0-t

ENTRY_SMILES: C=CC(=O)Nc1cc(Nc2nccc(-c3cn(C4CC4)c4ccccc34)n2)c(OC)cc1N(C)CCN(C)C
MRT last / h: 6.49

---

# ASSAY_NOTES: Pharmacokinetics of almonertinib in rats, alone and after multiple doses of rivaroxaban or apixaban
# Type: in vivo, Sprague-Dawley (SD) rats
# CONDITION_DETAILS: male, Sprague-Dawley, rat, plasma, po, 15 mg/kg, rats, oral almonertinib 15 mg/kg alone (group 3, control solvent of rivaroxaban), mean ± SD, n = 6

MOLECULE: C=CC(=O)Nc1cc(Nc2nccc(-c3cn(C4CC4)c4ccccc34)n2)c(OC)cc1N(C)CCN(C)C [almonertinib, Almonertinib]
UNIT_STRING: ng/mL
Cmax: 22.8
